target: α7 nAChR (rat α7/CHO cells) (Rattus norvegicus); assay: Evaluation of modulators of α7 nAChRs using the IonFlux HT automated patch clamp system (potentiation of EC20 ACh-evoked currents); settings: percent potentiation of ACh (EC20, approx. 60 μM) response in α7/CHO cells; 6-point dose response 0.03-10 μM; whole cell patch clamp
Sequence (Q05941 23-502): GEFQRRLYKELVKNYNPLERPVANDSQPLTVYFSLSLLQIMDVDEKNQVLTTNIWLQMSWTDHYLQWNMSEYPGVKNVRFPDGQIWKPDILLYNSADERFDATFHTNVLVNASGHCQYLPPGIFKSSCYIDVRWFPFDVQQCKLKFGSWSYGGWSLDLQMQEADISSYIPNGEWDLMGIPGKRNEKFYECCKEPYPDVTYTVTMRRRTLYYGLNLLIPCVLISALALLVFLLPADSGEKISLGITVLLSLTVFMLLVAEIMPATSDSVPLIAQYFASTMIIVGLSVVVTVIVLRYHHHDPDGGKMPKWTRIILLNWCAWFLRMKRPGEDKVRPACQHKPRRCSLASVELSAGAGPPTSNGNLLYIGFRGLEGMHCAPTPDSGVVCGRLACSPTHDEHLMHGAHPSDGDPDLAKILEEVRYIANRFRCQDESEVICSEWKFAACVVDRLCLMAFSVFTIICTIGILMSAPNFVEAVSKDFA
Lab note: cut-off is 400 nM. Strictly less in EC50 is True. Exactly 400 nM or more is False.

INSERT INTO measurements (compound, tested_target, category) VALUES
  ('COc1ccc(Cl)cc1OC[C@@H]1[C@@H](c2ccc(S(N)(=O)=O)cc2)C1(C)C (single isomer, unassigned) [Exp. 12]', 'α7 nAChR (rat α7/CHO cells) (Rattus norvegicus)', 'False'),
  ('COc1cc(F)ccc1OC[C@H]1[C@H](c2ccc(NS(N)(=O)=O)cc2)C1(C)C (single isomer, unassigned)', 'α7 nAChR (rat α7/CHO cells) (Rattus norvegicus)', 'False'),
  ('CC1(C)[C@@H](COc2cncnc2)[C@@H]1c1ccc(S(N)(=O)=O)cc1 (single isomer, unassigned)', 'α7 nAChR (rat α7/CHO cells) (Rattus norvegicus)', 'False'),
  ('COc1ccc(Cl)cc1CC[C@H]1[C@H](c2ccc(S(N)(=O)=O)cc2)C1(C)C (single isomer, unassigned)', 'α7 nAChR (rat α7/CHO cells) (Rattus norvegicus)', 'True'),
  ('Cc1ccc(SC[C@H]2[C@H](c3ccc(S(N)(=O)=O)cc3)C2(C)C)cc1 (single isomer, unassigned)', 'α7 nAChR (rat α7/CHO cells) (Rattus norvegicus)', 'True');

Strictly below 400 nM in EC50? COc1ccc(Cl)cc1CC[C@@H]1[C@@H](c2ccc(S(N)(=O)=O)cc2)C1(C)C (single isomer, unassigned) True

Strictly below 400 nM in EC50? N#Cc1cc(F)ccc1OC[C@H]1C[C@@H]1c1ccc(S(N)(=O)=O)cc1 (single isomer, unassigned) False

Strictly below 400 nM in EC50? COc1ccc(OC[C@H]2[C@H](c3ccc(NS(C)(=O)=O)cc3)C2(C)C)cn1 (single isomer, unassigned) False

Strictly below 400 nM in EC50? COc1ccc(OC[C@H]2[C@H](c3ccc(NS(N)(=O)=O)cc3)C2(C)C)cn1 (single isomer, unassigned) False

Strictly below 400 nM in EC50? COc1cc(F)ccc1OC[C@@H]1C[C@H]1c1ccc(S(N)(=O)=O)cc1 (single isomer, unassigned) False

Strictly below 400 nM in EC50? COc1ccc(Cl)cc1OC[C@@H]1[C@@H](c2ccc(S(N)(=O)=O)cc2)C12CCCC2 (racemic) True

Strictly below 400 nM in EC50? COc1ccc(Cl)cc1CC[C@H]1[C@H](c2ccc(S(N)(=O)=O)cc2)C12CCCC2 (single isomer, unassigned) True

Strictly below 400 nM in EC50? COc1ccc(Cl)cc1OC[C@@H]1C[C@H]1c1ccc(S(N)(=O)=O)cc1 (single isomer, unassigned) False

Strictly below 400 nM in EC50? CC1(C)[C@H](COc2ccc(Cl)cn2)[C@H]1c1ccc(S(N)(=O)=O)cc1 (single isomer, unassigned) False

Strictly below 400 nM in EC50? Cc1ncccc1OC[C@H]1[C@H](c2ccc(NS(C)(=O)=O)cc2)C1(C)C (single isomer, unassigned) True
